# assayDetails: Biodistribution experiments in normal mice after i.v. injection
# Assay type: in vivo
# studyConditions: male, ddY, mouse, in vivo, iv, total radioactivity, Biodistribution of radioactivity, Small-intestine
Where a SMILES comes first, the peptide text is derived from it. [ ]: non-standard residue; d: D form. The star is where a group is joined. DOTA = O=C(O)CN1CCN(CC(=O)O)CCN(CC(=O)*)CCN(CC(=O)O)CC1
Listed below: tissue uptake dose at 1 h values for each entry.

[
  {
    "compound": "O=C(O)C[C@@H](NC(=O)[C@@H](CC(=O)O)NC(=O)[C@@H](CC(=O)O)NC(=O)[C@@H](CC(=O)O)NC(=O)[C@@H](CC(=O)O)NC(=O)CN1CCN(CC(=O)O)CCN(CC(=O)O)CCN(CC(=O)O)CC1)C(=O)O [^67Ga-DOTA-(D-Asp)5, metal not drawn] ({DOTA}-[dD][dD][dD][dD][dD]-OH)",
    "measurementUnit": "%ID",
    "tissue uptake dose at 1 h": 0.23
  },
  {
    "compound": "O=C(O)C[C@@H](NC(=O)[C@@H](CC(=O)O)NC(=O)CN1CCN(CC(=O)O)CCN(CC(=O)O)CCN(CC(=O)O)CC1)C(=O)O [^67Ga-DOTA-(D-Asp)2, metal not drawn] ({DOTA}-[dD]-[dD]-OH)",
    "measurementUnit": "%ID",
    "tissue uptake dose at 1 h": 0.14
  },
  {
    "compound": "O=C(O)C[C@@H](NC(=O)[C@@H](CC(=O)O)NC(=O)[C@@H](CC(=O)O)NC(=O)[C@@H](CC(=O)O)NC(=O)[C@@H](CC(=O)O)NC(=O)[C@@H](CC(=O)O)NC(=O)[C@@H](CC(=O)O)NC(=O)[C@@H](CC(=O)O)NC(=O)CN1CCN(CC(=O)O)CCN(CC(=O)O)CCN(CC(=O)O)CC1)C(=O)O [^67Ga-DOTA-(D-Asp)8, metal not drawn] ({DOTA}-[dD][dD][dD][dD][dD][dD][dD][dD]-OH)",
    "measurementUnit": "%ID",
    "tissue uptake dose at 1 h": 0.13
  },
  {
    "compound": "O=C(O)CC[C@@H](NC(=O)[C@@H](CCC(=O)O)NC(=O)[C@@H](CCC(=O)O)NC(=O)[C@@H](CCC(=O)O)NC(=O)[C@@H](CCC(=O)O)NC(=O)[C@@H](CCC(=O)O)NC(=O)[C@@H](CCC(=O)O)NC(=O)[C@@H](CCC(=O)O)NC(=O)[C@@H](CCC(=O)O)NC(=O)[C@@H](CCC(=O)O)NC(=O)[C@@H](CCC(=O)O)NC(=O)[C@@H](CCC(=O)O)NC(=O)[C@@H](CCC(=O)O)NC(=O)[C@@H](CCC(=O)O)NC(=O)CN1CCN(CC(=O)O)CCN(CC(=O)O)CCN(CC(=O)O)CC1)C(=O)O [^67Ga-DOTA-(D-Glu)14, metal not drawn]",
    "measurementUnit": "%ID",
    "tissue uptake dose at 1 h": 0.22
  }
]

###

# assayDetails: Biodistribution experiments in normal mice after i.v. injection
# Assay type: in vivo
# studyConditions: male, ddY, mouse, in vivo, iv, total radioactivity, mice, i.v., 60 min after injection, mean (SD); read-out: Biodistribution of radioactivity, Muscle
Where a SMILES comes first, the peptide text is derived from it. [ ]: non-standard residue; d: D form. The star is where a group is joined. DOTA = O=C(O)CN1CCN(CC(=O)O)CCN(CC(=O)*)CCN(CC(=O)O)CC1

[
  {
    "compound": "O=C(O)C[C@@H](NC(=O)[C@@H](CC(=O)O)NC(=O)[C@@H](CC(=O)O)NC(=O)[C@@H](CC(=O)O)NC(=O)[C@@H](CC(=O)O)NC(=O)[C@@H](CC(=O)O)NC(=O)[C@@H](CC(=O)O)NC(=O)[C@@H](CC(=O)O)NC(=O)[C@@H](CC(=O)O)NC(=O)[C@@H](CC(=O)O)NC(=O)[C@@H](CC(=O)O)NC(=O)CN1CCN(CC(=O)O)CCN(CC(=O)O)CCN(CC(=O)O)CC1)C(=O)O [^67Ga-DOTA-(D-Asp)11, metal not drawn] ({DOTA}-[dD][dD][dD][dD][dD][dD][dD][dD][dD][dD][dD]-OH)",
    "tissue uptake dose at 1 h [%ID]": 0.18
  }
]
